# System: SF-295 CNS
# procedure_summary: NCI tumour cell line growth inhibition, 48 h
The reader will find reported TGI values listed item by item below.

Data request, read-out TGI, for `C/C(=N\O)c1ccc2cc(Br)c3ccccc3c2c1` 37.5 µM

Data request, read-out TGI, for NC(N)=N/N=C(/CC1OC(=O)c2ccccc21)c1ccc2ccccc2c1 (stereo unspecified) > 100 µM

Data request, read-out TGI, for `C/C(CCn1[nH]c(=O)ccc1=O)=N\N=C(N)N` > 100 µM

Data request, read-out TGI, for `COc1cc(C=O)cc(/C=N/N=C/c2ccccc2O)c1O` 8.16 µM

Data request, read-out TGI, for C=CN1CCN(c2ccccc2)P1(=O)Oc1ccccc1 (stereo unspecified) > 100 µM

Data request, read-out TGI, for C=C1CC(Cn2ccc(=O)[nH]c2=O)(c2ccc(OC)cc2)OC1=O (stereo unspecified) > 100 µM

The reported measurements were obtained from PubChem BioAssay (NCI).
